Each recorded value in this set is attributed to patent US8734776B2.

Test system: encephelomyocarditis virus
protocol-description: Antiviral assay: cytopathic effect in HeLa cells
Assay type: cell-based, human
experimental-setup: relative CM concentration .0156X
Percentage Cytopathic Effect values, listed per item
# output: number + unit

molecule	Percentage Cytopathic Effect
zcyto25: mouse IL-28, SEQ ID NO:10 (protein, listed as Mus musculus, SIGNAL (1)...(28)) MKPETAGGHMLLLLLPLLLAAVLTRTQADPVPRATRLPVEAKDCHIAQFKSLSPKELQAFKKAKGAIEKRLLEKDMRCSSHLISRAWDLKQLQVQERPKALQAEVALTLKVWENINDSALTTILGQPLHTLSHIHSQLQTCTQLQATAEPKPPSRRLSRWLHRLQEAQSKETPGCLEDSVTSNLFQLLLRDLKCVASGDQCV	5%

--- query ---
Exercise: Using the record for IL-29: human IL-29, previously designated zcyto21, SEQ ID NO:4 (protein, listed as Homo sapiens, SIGNAL (1)...(19)) MAAAWTVVLVTLVLGLAVAGPVPTSKPTTTGKGCHIGRFKSLSPQELASFKKARDALEESLKLKNWSCSSPVFPGNWDLRLLQVRERPVALEAELALTLKVLEAAAGPALEDVLDQPLHTLHHILSQLQACIQPQPTAGPRPRGRLHHWLHRLQEAPKKESAGCLEASVTFNLFRLLTRDLKYVADGNLCLRTSTHPEST , report its Percentage Cytopathic Effect.
Solution: 31%
